Exercise: state measured ΔTm at 500 µM for each of the compounds provided.
biological target: human serum albumin (HSA) (Homo sapiens); test: Differential scanning calorimetry (DSC), thermal stability of HSA–ligand complexes; conditions: human, human serum albumin (HSA) 50 µM in buffer, pH 6.8
Give the value; after it, write the unit.

Prompt: Report ΔTm at 500 µM on human serum albumin (HSA) (Homo sapiens) for this entry: O=C(O[C@@H]1Cc2c(O)cc(O)cc2O[C@H]1c1ccc(O)c(O)c1)c1cc(O)c(O)c(O)c1 [Cg, (−)-catechin gallate]
Completion: 3.1 °C

Prompt: # return ΔTm at 500 µM for O=C(O[C@@H]1Cc2c(O)cc(O)cc2O[C@H]1c1cc(O)c(O)c(O)c1)c1cc(O)c(O)c(O)c1 [GCg, (−)-gallocatechin gallate] , test system: human serum albumin (HSA) (Homo sapiens)
Completion: 4.6 °C

Prompt: For human serum albumin (HSA) (Homo sapiens), give the measured ΔTm at 500 µM of the entry O=C(O[C@@H]1Cc2c(O)cc(O)cc2O[C@@H]1c1cc(O)c(O)c(O)c1)c1cc(O)c(O)c(O)c1 [EGCg, (−)-epigallocatechin gallate]
Completion: 2.7 °C

###

molecular target: human serum albumin (HSA) (Homo sapiens, UniProt P02768); experiment: Isothermal titration calorimetry (ITC) of binding of catechins and analogs to HSA; design: purchased Sigma-Aldrich Japan (Tokyo, Japan); settings: ITC, 298 K
Sequence (P02768 25-609): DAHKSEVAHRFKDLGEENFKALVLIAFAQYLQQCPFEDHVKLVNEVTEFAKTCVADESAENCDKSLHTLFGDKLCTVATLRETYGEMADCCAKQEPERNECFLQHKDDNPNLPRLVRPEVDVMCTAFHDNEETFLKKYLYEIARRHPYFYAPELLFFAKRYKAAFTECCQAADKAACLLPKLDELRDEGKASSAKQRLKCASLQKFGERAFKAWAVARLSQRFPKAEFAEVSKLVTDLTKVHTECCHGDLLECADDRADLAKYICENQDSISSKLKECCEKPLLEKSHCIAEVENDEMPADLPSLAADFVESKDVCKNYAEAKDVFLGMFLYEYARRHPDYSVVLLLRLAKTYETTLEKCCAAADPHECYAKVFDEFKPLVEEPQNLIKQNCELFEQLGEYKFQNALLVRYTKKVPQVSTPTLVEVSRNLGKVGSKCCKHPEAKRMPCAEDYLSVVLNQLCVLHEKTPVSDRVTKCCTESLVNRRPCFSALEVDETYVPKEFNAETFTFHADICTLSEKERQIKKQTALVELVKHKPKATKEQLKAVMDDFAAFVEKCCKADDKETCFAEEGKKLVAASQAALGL
outcome_measure: thermodynamic profile of binding (enthalpy-driven or entropy-driven)

molecule="O=C(O[C@@H]1Cc2c(O)cc(O)cc2O[C@H]1c1ccc(O)c(O)c1)c1cc(O)c(O)c(O)c1 [Cg, (−)-catechin gallate]" target_system="human serum albumin (HSA) (Homo sapiens, UniProt P02768)" recorded_measurement=entropy-driven
molecule="Oc1cc(O)c2c(c1)O[C@H](c1cc(O)c(O)c(O)c1)[C@H](O)C2 [EGC, (−)-epigallocatechin]" target_system="human serum albumin (HSA) (Homo sapiens, UniProt P02768)" recorded_measurement=entropy-driven

###

target: human serum albumin (HSA) (Homo sapiens); experiment: Isothermal titration calorimetry (ITC) of binding of catechins and analogs to HSA; set-up: purchased Sigma-Aldrich Japan (Tokyo, Japan); settings: S3 Table; temperature 293 K; read-out: KD
outcome_measure: pKd
The read-out pKd is expressed as -log10 of concentration in moles per litre.

Prompt: Look up pKd of COc1cc(C(=O)O[C@@H]2Cc3c(O)cc(O)cc3O[C@@H]2c2cc(O)c(O)c(O)c2)cc(O)c1O and report it.
Completion: 6.92

Prompt: Provide only the value of recorded pKd for O=C(O[C@@H]1Cc2c(O)cc(O)cc2O[C@@H]1c1cc(O)c(O)c(O)c1)c1cc(O)c(O)c(O)c1 [EGCg, (−)-epigallocatechin gallate]
Completion: 5.68

###

target: human serum albumin (HSA) (Homo sapiens, UniProt P02768); experiment: Isothermal titration calorimetry (ITC) of binding of catechins and analogs to HSA; parameters: purchased Sigma-Aldrich Japan (Tokyo, Japan); settings: S1 Table; ITC binding affinity listed beside Tm; read-out: KD
Please go through the items and note down their pKd.
Just the number, please; pKd means minus log10 of the concentration in mol/L.

Prompt: Output measured pKd for this item: O=C(O[C@@H]1Cc2c(O)cc(O)cc2O[C@H]1c1cc(O)c(O)c(O)c1)c1cc(O)c(O)c(O)c1 [GCg, (−)-gallocatechin gallate]
Completion: 5.06

Prompt: Give the value of pKd reported for the following: O=C(O[C@@H]1Cc2c(O)cc(O)cc2O[C@H]1c1ccc(O)c(O)c1)c1cc(O)c(O)c(O)c1 [Cg, (−)-catechin gallate]
Completion: 5.46

Prompt: Return the recorded pKd value; entry: Oc1cc(O)c2c(c1)O[C@H](c1ccc(O)c(O)c1)[C@H](O)C2 [EC, (−)-epicatechin]
Completion: 4.31

Prompt: Item O=C(O[C@@H]1Cc2c(O)cc(O)cc2O[C@@H]1c1ccc(O)c(O)c1)c1cc(O)c(O)c(O)c1 [ECg, (−)-epicatechin gallate] : provide pKd
Completion: 5.96

Prompt: Tell us which pKd value is on record for Oc1cc(O)c2c(c1)O[C@@H](c1ccc(O)c(O)c1)[C@H](O)C2 [C, (+)-catechin]
Completion: 5.30

Prompt: Give reported pKd value for O=C(O[C@@H]1Cc2c(O)cc(O)cc2O[C@@H]1c1cc(O)c(O)c(O)c1)c1cc(O)c(O)c(O)c1 [EGCg, (−)-epigallocatechin gallate]
Completion: 5.66

###

Give ΔH for every item shown.
target: human serum albumin (HSA) (Homo sapiens, UniProt P02768); assay: Isothermal titration calorimetry (ITC) of binding of catechins and analogs to HSA; design: purchased Sigma-Aldrich Japan (Tokyo, Japan); conditions: Table 2, methylated catechin derivatives; ITC, 298 K
The reply should contain only the number, in kJ/mol.

Prompt: Determine its reported ΔH: COc1c(O)cc(C(=O)O[C@@H]2Cc3c(O)cc(O)cc3O[C@@H]2c2cc(O)c(O)c(O)c2)cc1O
Completion: -41

Prompt: Supply measured ΔH of COc1c(O)cc([C@H]2Oc3cc(O)cc(O)c3C[C@H]2OC(=O)c2cc(O)c(O)c(O)c2)cc1O in your reply.
Completion: -29.3

Prompt: Complete the entry with ΔH for COc1cc(C(=O)O[C@@H]2Cc3c(O)cc(O)cc3O[C@@H]2c2cc(O)c(O)c(O)c2)cc(O)c1O
Completion: -33.1

Prompt: Provide one value: measured ΔH of COc1cc([C@H]2Oc3cc(O)cc(O)c3C[C@H]2OC(=O)c2cc(O)c(O)c(O)c2)cc(O)c1O
Completion: -38.9

###

Would you kindly list ΔG for each of these compounds?
target: human serum albumin (HSA) (Homo sapiens); experiment: Isothermal titration calorimetry (ITC) of binding of catechins and analogs to HSA; design: purchased Sigma-Aldrich Japan (Tokyo, Japan); conditions: Table 1; ITC, 298 K, 50 mM sodium phosphate pH 6.8

Prompt: Please respond with reported ΔG (system human serum albumin (HSA) (Homo sapiens)) for O=C(O[C@@H]1Cc2c(O)cc(O)cc2O[C@@H]1c1ccc(O)c(O)c1)c1cc(O)c(O)c(O)c1 [ECg, (−)-epicatechin gallate] .
Completion: -8.1 ± 0.1 kcal/mol

Prompt: Please look at O=C(O[C@@H]1Cc2c(O)cc(O)cc2O[C@H]1c1cc(O)c(O)c(O)c1)c1cc(O)c(O)c(O)c1 [GCg, (−)-gallocatechin gallate] and tell me its recorded ΔG on human serum albumin (HSA) (Homo sapiens).
Completion: -6.9 ± 0.2 kcal/mol

Prompt: Enter recorded ΔG with human serum albumin (HSA) (Homo sapiens) for O=C(O[C@@H]1Cc2c(O)cc(O)cc2O[C@H]1c1ccc(O)c(O)c1)c1cc(O)c(O)c(O)c1 [Cg, (−)-catechin gallate] here.
Completion: -7.4 ± 0.1 kcal/mol

Prompt: Enter ΔG (test system human serum albumin (HSA) (Homo sapiens)) for Oc1cc(O)c2c(c1)O[C@@H](c1ccc(O)c(O)c1)[C@H](O)C2 [C, (+)-catechin]
Completion: -7.1 ± 0.6 kcal/mol

Prompt: Look up and report measured ΔG (human serum albumin (HSA) (Homo sapiens)) for the following compound: Oc1cc(O)c2c(c1)O[C@H](c1ccc(O)c(O)c1)[C@H](O)C2 [EC, (−)-epicatechin]
Completion: -5.8 ± 0.2 kcal/mol

Prompt: Param request: ΔG | system human serum albumin (HSA) (Homo sapiens) | item Oc1cc(O)c2c(c1)O[C@@H](c1cc(O)c(O)c(O)c1)[C@H](O)C2 [GC, (−)-gallocatechin]
Completion: -5.8 ± 0.2 kcal/mol

Prompt: Report its ΔG with human serum albumin (HSA) (Homo sapiens) as the test system: O=C(O[C@@H]1Cc2c(O)cc(O)cc2O[C@@H]1c1cc(O)c(O)c(O)c1)c1cc(O)c(O)c(O)c1 [EGCg, (−)-epigallocatechin gallate]
Completion: -7.7 ± 0.1 kcal/mol

Prompt: # return ΔG of Oc1cc(O)c2c(c1)O[C@H](c1cc(O)c(O)c(O)c1)[C@H](O)C2 [EGC, (−)-epigallocatechin] (system: human serum albumin (HSA) (Homo sapiens))
Completion: -6.3 ± 0.4 kcal/mol

Prompt: Please report ΔG with human serum albumin (HSA) (Homo sapiens) for item CCOC(=O)c1cc(O)c(O)c(O)c1 [EtGa, Ethyl gallate] .
Completion: -5.9 ± 0.3 kcal/mol

Where these numbers come from: paper PMC6181319
